All figures here come from paper PMC9995496.

# Tested on: PRKACA-PRKAR2A interaction (SmBiT-PRKACA / LgBiT-PRKAR2A), protein kinase A
# Design: NanoLuc complementation counter-screen in cell extract, PRKACA with PRKAR2A, loss of luminescence, detects NanoLuc interference
# experimental parameters: counter-screen for NanoLuc interference; 0.5 h, 20 µM; inhibitor
Counter-ions that a name gives are not always drawn.
# reported Inh (PKA); entries follow

{"columns": ["compound", "Inh (PKA) / %"],
 "data": [
  ["COc1cc2c(cc1-c1c(C)noc1C)ncc1[nH]c(=O)n([C@H](C)c3ccccn3)c12 [UM0142279:01, I-BET151 (GSK1210151A)]", 10.84],
  ["CC(C)C[C@H](NC(=O)[C@H](CCc1ccccc1)NC(=O)CN1CCOCC1)C(=O)N[C@@H](Cc1ccccc1)C(=O)N[C@@H](CC(C)C)C(=O)[C@@]1(C)CO1", 0.3082],
  ["CS(=O)(=O)Nc1ccc([N+](=O)[O-])cc1Oc1ccccc1 [UM0118531:03, Nimesulide]", 82.23],
  ["Oc1ccc(Nc2nc(-c3ccc(Cl)cc3)cs2)cc1", 14.65],
  ["Cc1ccc(-c2cc(C(F)(F)F)nn2-c2ccc(S(N)(=O)=O)cc2)cc1", 16.21],
  ["Nc1nccs1", 1.156],
  ["C=C1C(=O)O[C@@H]2/C=C(\\C)CC/C=C(\\C)CC[C@@H]12 [UM0141534:01, Costunolide]", 4.671],
  ["NC(=O)c1ccccc1 [UM0119596:03, Benzamide]", -0.9754],
  ["N#Cc1ccc(NCCNCC(=O)N2CCC[C@H]2C#N)nc1 [UM0141834:01, NVP DPP 728 dihydrochloride]", -0.6384],
  ["O=C(Cc1ccccc1)Nc1nnc(CCSCCc2nnc(NC(=O)Cc3ccccc3)s2)s1", 8.754],
  ["Cc1c[nH]c(/C=C2\\C(=O)Nc3ccccc32)c1CCC(=O)O", 46.56],
  ["COC(=O)C[C@H](NC(=O)[C@@H](NC(=O)c1ccc2ccccc2n1)C(C)C)C(=O)COc1c(F)cccc1F", 13.3],
  ["O=C1CCC[C@@H]2[C@H]3CCCN4CCC[C@@H](CN12)[C@@H]34", 1.794],
  ["C[C@@H]1CCNC(=O)c2cc3ccc(C(=O)Nc4nc5ccccc5n4CCCN(C)C)cc3n21", 22.65],
  ["CCOc1cc(CC(=O)N[C@@H](CC(C)C)c2ccccc2N2CCCCC2)ccc1C(=O)O [UM0141879:01, Repaglinide]", 5.467],
  ["COc1cc([C@@H]2c3cc4c(cc3[C@@H](O[C@@H]3O[C@@H]5CO[C@@H](c6cccs6)O[C@H]5[C@H](O)[C@H]3O)[C@H]3COC(=O)[C@H]23)OCO4)cc(OC)c1O [UM0142075:01, Teniposide]", 6.975],
  ["NC1(Cc2ccc(Cl)cc2)CCN(c2ncnc3[nH]ccc23)CC1", 38.25],
  ["Cc1cc(C(C)Nc2ccccc2)c2nc(N3CCOCC3)cc(=O)n2c1 (stereo not drawn)", 45.75],
  ["CCCC(=O)Nc1cccc(NC(=O)c2ccccc2Br)c1", 3.147],
  ["CC(C)Oc1ccc(-c2nc(-c3cccc4c3CC[C@@H]4NCCO)no2)cc1C#N [UM0142722:01, Ozanimod (RPC1063)]", 8.033],
  ["CN(C)CC[C@H](CSc1ccccc1)Nc1ccc(S(=O)(=O)NC(=O)c2ccc(N3CCN(Cc4ccccc4-c4ccc(Cl)cc4)CC3)cc2)cc1[N+](=O)[O-]", 17.72],
  ["CCCCCCCCCC(=O)N[C@@H](Cc1c[nH]c2ccccc12)C(=O)N[C@H](CC(N)=O)C(=O)N[C@@H](CC(=O)O)C(=O)N[C@@H]1C(=O)NCC(=O)N[C@@H](CCCN)C(=O)N[C@@H](CC(=O)O)C(=O)N[C@H](C)C(=O)N[C@@H](CC(=O)O)C(=O)NCC(=O)N[C@H](CO)C(=O)N[C@@H]([C@H](C)CC(=O)O)C(=O)N[C@@H](CC(=O)c2ccccc2N)C(=O)O[C@@H]1C", 0.4906],
  ["Nc1ccccc1NC(=O)CCCCCCC(=O)Nc1ccccc1", 8.004],
  ["COc1ccc(Cl)cc1NC(=O)Nc1cc(C)nc2ccccc12", 19.94],
  ["c1ccc(CN(CC2=NCCN2)c2ccccc2)cc1 [UM0134174:02, Antazoline HCl]", 0.9494],
  ["COc1ccc(S(=O)(=O)Nc2cccnc2Nc2ccc(O)cc2)cc1 [UM0141402:01, ABT-751 (E7010)]", 8.683],
  ["CCO[C@@H]1OC(=O)C[C@@H]1NC(=O)[C@@H]1CCCN1C(=O)[C@@H](NC(=O)c1ccc(N)c(Cl)c1)C(C)(C)C", 0.4442]
]}
